Experiment: in vivo
Details: mouse, po

{"compound": "COc1cc2nc(N3CCN(C(=O)COc4c(OC)cccc4C(C)C)CC3)nc(N)c2cc1OC.Cl [Example 24]", "LD50 at 168 h": "> 3000 mg/kg"}

###

Assay: in vivo
Settings: mouse, ip, mice, intraperitoneal, mortality 7 days after administration, read-out: DL50 i.p.
Counter-ions that a name gives are not always drawn.
Label rule met when LD50 at 168 h < 100 mg/kg; otherwise rule not met.

{"molecule": "COc1cc2nc(N3CCN(C(=O)COc4ccccc4OC)CC3)nc(N)c2cc1OC.Cl", "category": "rule not met"}
{"molecule": "COc1cc2nc(N3CCN(C(=O)CNC(=O)CNC(=O)OCc4ccccc4)CC3)nc(N)c2cc1OC [Example 12, hydrochloride hemihydrate]", "category": "rule not met"}
{"molecule": "COc1cc2nc(N(C)CCCN3CCN(c4ccccc4OC)CC3)nc(N)c2cc1OC.Cl.Cl.O.O", "category": "rule met"}
{"molecule": "CCCCNC(=O)CC(=O)N1CCN(c2nc(N)c3cc(OC)c(OC)cc3n2)CC1.Cl", "category": "rule not met"}
{"molecule": "CCOC(=O)CC(=O)N1CCN(c2nc(N)c3cc(OC)c(OC)cc3n2)CC1.Cl", "category": "rule not met"}
{"molecule": "COc1cc2nc(N3CCN(C(=O)NCCN(C)C)CC3)nc(N)c2cc1OC.Cl.Cl.O.O.O.O", "category": "rule met"}
{"molecule": "COc1cc2nc(N3CCN(C(=O)CCN)CC3)nc(N)c2cc1OC", "category": "rule not met"}
{"molecule": "COc1cc2nc(N3CCN(C(=O)C(C)(C)Oc4ccccc4)CC3)nc(N)c2cc1OC", "category": "rule not met"}
{"molecule": "COc1cc2nc(N3CCN(C(=O)CCCNC(=O)OCc4ccccc4)CC3)nc(N)c2cc1OC", "category": "rule not met"}
{"molecule": "COc1cc2nc(N3CCN(C(=O)CC(O)c4ccccc4)CC3)nc(N)c2cc1OC (stereo not shown)", "category": "rule not met"}
{"molecule": "COc1cc2nc(N(C)CCC(c3ccccc3)c3ccccc3)nc(N)c2cc1OC [Example 29, hydrochloride]", "category": "rule not met"}
{"molecule": "COc1cc2nc(N3CCN(C(=O)C(C)Oc4c(OC)cccc4C(C)C)CC3)nc(N)c2cc1OC.Cl (stereo not shown)", "category": "rule not met"}
{"molecule": "COc1cc2nc(N3CCN(C(=O)CCCN)CC3)nc(N)c2cc1OC", "category": "rule not met"}
{"molecule": "COc1cc2nc(N3CCN(C(=O)C(c4ccccc4)c4ccccc4)CC3)nc(N)c2cc1OC", "category": "rule not met"}
{"molecule": "COc1cc2nc(N3CCN(Cc4ccccc4)CC3)nc(N)c2cc1OC [Example 1, hemihydrate]", "category": "rule met"}
{"molecule": "COc1cc2nc(N3CCC(c4ccccc4)(c4ccccc4)CC3)nc(N)c2cc1OC", "category": "rule not met"}

###

Reported values of pIC50 for individual entries
Biological target: α1-receptors ([3H]prazosin)
Experiment: [3H]Prazosin binding (α1-receptors), rat cerebral cortices
Conditions: rat cerebral cortex, 0.35 nM [3H]prazosin, 25° C., 30 min; read-out: [3H] prazosine IC50
pIC50: −log10 of the molar value. Counter-ions that a name gives are not always drawn.

{"compound": "COc1cc2nc(N3CCN(C(=O)CCC(=O)c4ccccc4)CC3)nc(N)c2cc1OC.Cl.O [Example 15, hydrochloride hydrate]", "experimentalSystem": "α1-receptors ([3H]prazosin)", "pIC50": 7.82}
{"compound": "COc1cc2nc(N3CCN(C(=O)CC(N)=O)CC3)nc(N)c2cc1OC [Example 17, hydrochloride hydrate]", "experimentalSystem": "α1-receptors ([3H]prazosin)", "pIC50": 6.98}
{"compound": "COc1cc2nc(N3CCC(c4ccccc4)(c4ccccc4)CC3)nc(N)c2cc1OC", "experimentalSystem": "α1-receptors ([3H]prazosin)", "pIC50": 6.59}
{"compound": "CCCCNC(=O)CC(=O)N1CCN(c2nc(N)c3cc(OC)c(OC)cc3n2)CC1.Cl [Example 19, hydrochloride]", "experimentalSystem": "α1-receptors ([3H]prazosin)", "pIC50": 7.02}
{"compound": "COc1cc2nc(N(C)Cc3ccccc3)nc(N)c2cc1OC [Example 28, hydrochloride]", "experimentalSystem": "α1-receptors ([3H]prazosin)", "pIC50": 7.15}
{"compound": "COc1cc2nc(N3CCN(C(=O)CCCNC(=O)OCc4ccccc4)CC3)nc(N)c2cc1OC", "experimentalSystem": "α1-receptors ([3H]prazosin)", "pIC50": 7.54}
{"compound": "COc1cc2nc(N3CCN(C(=O)C(C)(C)Oc4ccccc4OC)CC3)nc(N)c2cc1OC.Cl [Example 22, hydrochloride]", "experimentalSystem": "α1-receptors ([3H]prazosin)", "pIC50": 7.31}

###

Molecular target: α1-receptors ([3H]prazosin)
Experiment: [3H]Prazosin binding (α1-receptors), rat cerebral cortices
Conditions: rat cerebral cortex, 0.35 nM [3H]prazosin, 25° C., 30 min; read-out: [3H] prazosine IC50
pIC50: −log10 of the molar value. Where a name gives a salt, the structure may show the parent alone.
measuredProperty: pIC50

{"compound": "COc1cc2nc(N3CCc4c(ccc5ccccc45)C3)nc(N)c2cc1OC", "reportedResult": 8.30}
{"compound": "COc1cc2nc(N3CCN(C(=O)CNC(=O)OCc4ccccc4)CC3)nc(N)c2cc1OC.Cl [Example 11, hydrochloride]", "reportedResult": 7.21}
{"compound": "COc1cc2nc(N(C)CCCN3CCN(c4ccccc4OC)CC3)nc(N)c2cc1OC.Cl.Cl.O.O [Example 31, dihydrochloride dihydrate]", "reportedResult": 7.92}
{"compound": "CCOC(=O)CC(=O)N1CCN(c2nc(N)c3cc(OC)c(OC)cc3n2)CC1.Cl [Example 18, hydrochloride]", "reportedResult": 7.27}
{"compound": "COc1cc2nc(N3CCN(C(=O)NCCN(C)C)CC3)nc(N)c2cc1OC.Cl.Cl.O.O.O.O", "reportedResult": 7.26}
{"compound": "COc1cc2nc(N3CCN(C(=O)COc4c(OC)cccc4OC)CC3)nc(N)c2cc1OC", "reportedResult": 8.22}
{"compound": "COc1cc2nc(N3CCN(C(=O)CC(=O)Nc4ccccc4)CC3)nc(N)c2cc1OC [Example 20, hydrochloride hemihydrate]", "reportedResult": 7.17}
{"compound": "COc1cc2nc(N3CCN(C(=O)CCCN)CC3)nc(N)c2cc1OC", "reportedResult": 7.33}
{"compound": "COc1cc2nc(N3CCN(C(=O)CCC(O)c4ccccc4)CC3)nc(N)c2cc1OC (stereo not shown)", "reportedResult": 7.77}
{"compound": "COc1cc2nc(N3CCN(C(=O)CC(c4ccccc4)c4ccccc4)CC3)nc(N)c2cc1OC [Example 4, hydrochloride]", "reportedResult": 8.52}

###

Target: cloned α1D adrenoceptor (Rattus norvegicus, UniProt P23944)
Sequence (P23944 whole entry): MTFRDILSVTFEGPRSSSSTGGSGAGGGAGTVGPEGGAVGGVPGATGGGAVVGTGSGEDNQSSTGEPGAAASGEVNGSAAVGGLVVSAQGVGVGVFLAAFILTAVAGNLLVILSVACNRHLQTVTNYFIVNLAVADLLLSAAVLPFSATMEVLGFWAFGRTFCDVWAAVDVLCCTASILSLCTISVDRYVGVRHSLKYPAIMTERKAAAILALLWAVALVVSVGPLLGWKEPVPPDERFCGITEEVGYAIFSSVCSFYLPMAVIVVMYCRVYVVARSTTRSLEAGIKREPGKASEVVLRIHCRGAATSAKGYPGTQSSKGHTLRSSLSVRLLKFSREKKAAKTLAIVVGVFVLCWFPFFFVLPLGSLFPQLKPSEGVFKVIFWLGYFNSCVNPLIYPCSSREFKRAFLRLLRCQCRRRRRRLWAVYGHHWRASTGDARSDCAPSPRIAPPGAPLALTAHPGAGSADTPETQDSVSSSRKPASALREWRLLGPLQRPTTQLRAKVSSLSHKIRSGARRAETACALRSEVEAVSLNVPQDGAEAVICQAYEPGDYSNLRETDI
Assay: Radioligand binding, cloned α1D adrenoceptor (previously α1A/D) expressed in COS-7 cells
Conditions: rat brain α1D in COS-7 cells; mean of 2-4 experiments in triplicate, agreed within 10%
pIC50: −log10 of the molar value. Structures can show the parent of a compound that is named as a salt.
Reported values of pIC50 for individual entries
measuredProperty: pIC50

{"compound": "COc1cc2nc(N3CCN(C(=O)C4CCCO4)CC3)nc(N)c2cc1OC (centres unmarked) [Terazosin, reference compound]", "reportedResult": 6.98}
{"compound": "COc1ccc(CC2c3cc(OC)c(OC)cc3CCN2c2nc(N)c3cc(OC)c(OC)cc3n2)cc1OC (centres unmarked) [Example 33, hydrochloride hydrate]", "reportedResult": 5.81}

###

Reported values of LD50 at 168 h for individual entries
Assay: in vivo
Conditions: mouse, mice, oral, mortality 7 days after administration, read-out: DL50 p.o.
Where a name gives a salt, the structure may show the parent alone.
measuredProperty: LD50 at 168 h

{"compound": "COc1cc2nc(N3CCN(C(=O)C(C)(C)Oc4ccccc4)CC3)nc(N)c2cc1OC", "measuredProperty": "LD50 at 168 h", "reportedResult": "> 1700 mg/kg"}
{"compound": "COc1cc2nc(N3CCN(C(=O)CNC(=O)OCc4ccccc4)CC3)nc(N)c2cc1OC.Cl", "measuredProperty": "LD50 at 168 h", "reportedResult": "> 3000 mg/kg"}
{"compound": "COc1cc2nc(N3CCN(C(=O)CC(c4ccccc4)c4ccccc4)CC3)nc(N)c2cc1OC [Example 4, hydrochloride]", "measuredProperty": "LD50 at 168 h", "reportedResult": "> 3000 mg/kg"}
{"compound": "COc1cc2nc(N3CCN(C(=O)COc4cc(C)ccc4C(C)C)CC3)nc(N)c2cc1OC", "measuredProperty": "LD50 at 168 h", "reportedResult": "> 3000 mg/kg"}
{"compound": "COc1cc2nc(N3CCN(C(=O)CCC(O)c4ccccc4)CC3)nc(N)c2cc1OC (stereo not shown)", "measuredProperty": "LD50 at 168 h", "reportedResult": "> 3000 mg/kg"}
{"compound": "COc1cc2nc(N(C)CCCN3CCN(c4ccccc4OC)CC3)nc(N)c2cc1OC.Cl.Cl.O.O", "measuredProperty": "LD50 at 168 h", "reportedResult": "> 2000 mg/kg"}
{"compound": "COc1cc2nc(N3CCN(C(=O)CCCNC(=O)OCc4ccccc4)CC3)nc(N)c2cc1OC", "measuredProperty": "LD50 at 168 h", "reportedResult": "> 3000 mg/kg"}
{"compound": "COc1cc2nc(N3CCN(C(=O)NCCN(C)C)CC3)nc(N)c2cc1OC.Cl.Cl.O.O.O.O", "measuredProperty": "LD50 at 168 h", "reportedResult": "1350 mg/kg"}
{"compound": "CCOC(=O)CC(=O)N1CCN(c2nc(N)c3cc(OC)c(OC)cc3n2)CC1.Cl", "measuredProperty": "LD50 at 168 h", "reportedResult": "> 3000 mg/kg"}
{"compound": "CCCCNC(=O)CC(=O)N1CCN(c2nc(N)c3cc(OC)c(OC)cc3n2)CC1.Cl", "measuredProperty": "LD50 at 168 h", "reportedResult": "> 2000 mg/kg"}
